Target: Queuine tRNA-ribosyltransferase catalytic subunit 1 (Rattus norvegicus)
Experiment: Ability to act as substrate of rat liver tRNA-Guanine Transglycosylase.
The compounds listed here are annotated with their Incorporation.
observed property: Incorporation (%)

>  <molecule smiles>
Nc1nc(O)c2c(CNC3CCCC3)c[nH]c2n1

>  <result value>
80

$$$$
>  <molecule smiles>
CC(C)C(=O)NCc1c[nH]c2nc(N)nc(O)c12

>  <result value>
36

$$$$
>  <molecule smiles>
Nc1nc(O)c2c(CNCCOCCO)c[nH]c2n1

>  <result value>
98

$$$$

----------
Target: Queuine tRNA-ribosyltransferase catalytic subunit 1 (Rattus norvegicus) (UniProt Q4QR99)
Experiment: Ability to act as substrate of rat liver tRNA-Guanine Transglycosylase.
The compounds listed here are annotated with their Incorporation.
observed property: Incorporation (%)

>  <compound>
Nc1nc(O)c2c(CN3CCCCC3)c[nH]c2n1

>  <tested system>
Queuine tRNA-ribosyltransferase catalytic subunit 1 (Rattus norvegicus) (UniProt Q4QR99)

>  <observed property>
Incorporation

>  <result value>
65

$$$$
>  <compound>
Nc1nc(O)c2c(n1)N=CC2CNCC(=O)O (stereo unspecified)

>  <tested system>
Queuine tRNA-ribosyltransferase catalytic subunit 1 (Rattus norvegicus) (UniProt Q4QR99)

>  <observed property>
Incorporation

>  <result value>
48

$$$$
>  <compound>
Nc1nc(S)c2c(CNC3C=C[C@H](O)C3O)c[nH]c2n1 (stereo partly specified)

>  <tested system>
Queuine tRNA-ribosyltransferase catalytic subunit 1 (Rattus norvegicus) (UniProt Q4QR99)

>  <observed property>
Incorporation

>  <result value>
78

$$$$
>  <compound>
Nc1nc(O)c2c(CNCC(O)CO)c[nH]c2n1 (stereo unspecified)

>  <tested system>
Queuine tRNA-ribosyltransferase catalytic subunit 1 (Rattus norvegicus) (UniProt Q4QR99)

>  <observed property>
Incorporation

>  <result value>
88

$$$$
>  <compound>
Nc1nc(O)c2c(CNC3C=C[C@@H](O)C3O)c[nH]c2n1 (stereo partly specified)

>  <tested system>
Queuine tRNA-ribosyltransferase catalytic subunit 1 (Rattus norvegicus) (UniProt Q4QR99)

>  <observed property>
Incorporation

>  <result value>
120

$$$$
>  <compound>
Nc1nc(O)c2c(CNC3C=C[C@@H](O)[C@H]3O)c[nH]c2n1 (stereo partly specified)

>  <tested system>
Queuine tRNA-ribosyltransferase catalytic subunit 1 (Rattus norvegicus) (UniProt Q4QR99)

>  <observed property>
Incorporation

>  <result value>
100

$$$$

----------
The molecules listed here are annotated with their Inhibition.
System: L5178Y
Assay: Inhibition of L5178Y cell growth at 100 ug/mL.
observed property: Inhibition (%)

>  <molecule>
Nc1nc(O)c2c(CNc3cccc(O)c3)c[nH]c2n1

>  <result value>
79

$$$$
>  <molecule>
NCc1c[nH]c2nc(N)nc(S)c12

>  <result value>
77

$$$$
>  <molecule>
Nc1nc(S)c2c(CNC3C=C[C@H](O)C3O)c[nH]c2n1 (some centres undefined)

>  <result value>
88

$$$$
>  <molecule>
CC1(C)OC2C(NCc3c[nH]c4nc(N)nc(O)c34)C=C[C@H]2O1 (some centres undefined)

>  <result value>
21

$$$$
>  <molecule>
Nc1nc(O)c2c(CNCc3ccc(I)cc3)c[nH]c2n1

>  <result value>
77

$$$$
>  <molecule>
Nc1nc(O)c2c(CN3CCCCC3)c[nH]c2n1

>  <result value>
36

$$$$
>  <molecule>
Nc1nc(O)c2c(n1)N=CC2CNCC(=O)O (centres undefined)

>  <result value>
20

$$$$
>  <molecule>
Nc1nc(O)c2c(CNC(=O)CI)c[nH]c2n1

>  <result value>
89

$$$$
>  <molecule>
CC1(C)OC2C(NCc3c[nH]c4nc(N)nc(S)c34)C=C[C@@H]2O1 (some centres undefined)

>  <result value>
94

$$$$
>  <molecule>
Nc1nc(O)c2c(CNc3ccccc3O)c[nH]c2n1

>  <result value>
90

$$$$
>  <molecule>
CC1(C)OC2C(NCc3c[nH]c4nc(N)nc(O)c34)C=C[C@@H]2O1 (some centres undefined)

>  <result value>
34

$$$$
>  <molecule>
Nc1nc(O)c2c(CNCCOCCO)c[nH]c2n1

>  <result value>
9

$$$$
>  <molecule>
Nc1nc(O)c2c(CNCC(O)CO)c[nH]c2n1 (centres undefined)

>  <result value>
31

$$$$
>  <molecule>
CC(C)C(=O)NCc1c[nH]c2nc(N)nc(O)c12

>  <result value>
87

$$$$

----------
System: L5178Y
Experiment: Inhibition of L5178Y cell growth at 100 ug/mL.
observed property: Inhibition (%)

>  <compound>
CCCNCc1c[nH]c2nc(N)nc(O)c12

>  <unit abbrev>
%

>  <result value>
43

$$$$
>  <compound>
N/C(=N/Cc1c[nH]c2nc(N)nc(O)c12)c1cc(I)c(O)c(I)c1

>  <unit abbrev>
%

>  <result value>
89

$$$$
>  <compound>
Nc1nc(O)c2c(CNC3C=C[C@@H](O)C3O)c[nH]c2n1 (stereo partly specified)

>  <unit abbrev>
%

>  <result value>
23

$$$$
>  <compound>
Nc1nc(O)c2c(CNC3CCCC3)c[nH]c2n1

>  <unit abbrev>
%

>  <result value>
74

$$$$
>  <compound>
Nc1nc(O)c2c(CNC3C=C[C@@H](O)[C@H]3O)c[nH]c2n1 (stereo partly specified)

>  <unit abbrev>
%

>  <result value>
20

$$$$
>  <compound>
Nc1nc(O)c2c(CNC3C=C[C@H](O)[C@@H]3O)c[nH]c2n1 (stereo partly specified)

>  <unit abbrev>
%

>  <result value>
53

$$$$

----------
Biological target: Queuine tRNA-ribosyltransferase catalytic subunit 1 (Rattus norvegicus) (UniProt Q4QR99)
Sequence (whole entry): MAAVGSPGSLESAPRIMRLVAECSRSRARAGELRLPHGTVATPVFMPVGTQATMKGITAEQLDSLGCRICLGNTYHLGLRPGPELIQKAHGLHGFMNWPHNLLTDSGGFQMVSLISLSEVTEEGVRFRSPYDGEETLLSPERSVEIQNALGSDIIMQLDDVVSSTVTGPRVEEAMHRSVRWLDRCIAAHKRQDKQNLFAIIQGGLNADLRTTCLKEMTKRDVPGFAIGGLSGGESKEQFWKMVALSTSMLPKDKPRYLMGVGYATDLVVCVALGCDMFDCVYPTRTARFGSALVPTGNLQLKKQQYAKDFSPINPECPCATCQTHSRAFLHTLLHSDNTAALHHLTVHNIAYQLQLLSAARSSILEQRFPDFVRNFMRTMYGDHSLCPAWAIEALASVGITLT
Assay: Ability to act as substrate of rat liver tRNA-Guanine Transglycosylase.

>  <compound>
Nc1nc(O)c2c(CNc3cccc(O)c3)c[nH]c2n1

>  <Incorporation>
33%

$$$$
>  <compound>
CC1(C)OC2C(NCc3c[nH]c4nc(N)nc(O)c34)C=C[C@H]2O1 (stereo partly specified)

>  <Incorporation>
100%

$$$$
>  <compound>
N/C(=N/Cc1c[nH]c2nc(N)nc(O)c12)c1cc(I)c(O)c(I)c1

>  <Incorporation>
48%

$$$$
>  <compound>
CC1(C)OC2C(NCc3c[nH]c4nc(N)nc(O)c34)C=C[C@@H]2O1 (stereo partly specified)

>  <Incorporation>
55%

$$$$
>  <compound>
Nc1nc(O)c2c(CNC(=O)CI)c[nH]c2n1

>  <Incorporation>
0%

$$$$
>  <compound>
NCc1c[nH]c2nc(N)nc(S)c12

>  <Incorporation>
50%

$$$$
>  <compound>
Nc1nc(O)c2c(CNCc3ccc(I)cc3)c[nH]c2n1

>  <Incorporation>
98%

$$$$
>  <compound>
Nc1nc(O)c2c(CNC3C=C[C@H](O)[C@@H]3O)c[nH]c2n1 (stereo partly specified)

>  <Incorporation>
70%

$$$$
>  <compound>
CC1(C)OC2C(NCc3c[nH]c4nc(N)nc(S)c34)C=C[C@@H]2O1 (stereo partly specified)

>  <Incorporation>
123%

$$$$
>  <compound>
CCCNCc1c[nH]c2nc(N)nc(O)c12

>  <Incorporation>
94%

$$$$
>  <compound>
Nc1nc(O)c2c(CNc3ccccc3O)c[nH]c2n1

>  <Incorporation>
76%

$$$$

----------
Tested on: L5178Y
Assay: Inhibition of L5178Y cell growth at 10 ug/mL.
The molecules listed here are annotated with their Inhibition.

>  <molecule>
Nc1nc(O)c2c(CNCCOCCO)c[nH]c2n1

>  <tested system>
L5178Y

>  <value relation sign>
<

>  <Inhibition [%]>
10

$$$$
>  <molecule>
CC(C)C(=O)NCc1c[nH]c2nc(N)nc(O)c12

>  <tested system>
L5178Y

>  <value relation sign>
=

>  <Inhibition [%]>
16

$$$$
>  <molecule>
Nc1nc(O)c2c(CNCc3ccc(I)cc3)c[nH]c2n1

>  <tested system>
L5178Y

>  <value relation sign>
=

>  <Inhibition [%]>
19

$$$$
>  <molecule>
Nc1nc(S)c2c(CNC3C=C[C@H](O)C3O)c[nH]c2n1 (stereo not given in full)

>  <tested system>
L5178Y

>  <value relation sign>
=

>  <Inhibition [%]>
54

$$$$
>  <molecule>
CC1(C)OC2C(NCc3c[nH]c4nc(N)nc(O)c34)C=C[C@@H]2O1 (stereo not given in full)

>  <tested system>
L5178Y

>  <value relation sign>
<

>  <Inhibition [%]>
10

$$$$
>  <molecule>
Nc1nc(O)c2c(CNC3C=C[C@@H](O)C3O)c[nH]c2n1 (stereo not given in full)

>  <tested system>
L5178Y

>  <value relation sign>
<

>  <Inhibition [%]>
10

$$$$
>  <molecule>
Nc1nc(O)c2c(CNCC(O)CO)c[nH]c2n1 (stereo not given)

>  <tested system>
L5178Y

>  <value relation sign>
<

>  <Inhibition [%]>
10

$$$$
>  <molecule>
Nc1nc(O)c2c(CN3CCCCC3)c[nH]c2n1

>  <tested system>
L5178Y

>  <value relation sign>
<

>  <Inhibition [%]>
10

$$$$
>  <molecule>
Nc1nc(O)c2c(CNC3CCCC3)c[nH]c2n1

>  <tested system>
L5178Y

>  <value relation sign>
=

>  <Inhibition [%]>
17

$$$$
>  <molecule>
N/C(=N/Cc1c[nH]c2nc(N)nc(O)c12)c1cc(I)c(O)c(I)c1

>  <tested system>
L5178Y

>  <value relation sign>
=

>  <Inhibition [%]>
31

$$$$
>  <molecule>
CC1(C)OC2C(NCc3c[nH]c4nc(N)nc(O)c34)C=C[C@H]2O1 (stereo not given in full)

>  <tested system>
L5178Y

>  <value relation sign>
<

>  <Inhibition [%]>
10

$$$$
>  <molecule>
CCCNCc1c[nH]c2nc(N)nc(O)c12

>  <tested system>
L5178Y

>  <value relation sign>
<

>  <Inhibition [%]>
10

$$$$
>  <molecule>
Nc1nc(O)c2c(n1)N=CC2CNCC(=O)O (stereo not given)

>  <tested system>
L5178Y

>  <value relation sign>
<

>  <Inhibition [%]>
10

$$$$
>  <molecule>
Nc1nc(O)c2c(CNc3ccccc3O)c[nH]c2n1

>  <tested system>
L5178Y

>  <value relation sign>
=

>  <Inhibition [%]>
53

$$$$
>  <molecule>
CC1(C)OC2C(NCc3c[nH]c4nc(N)nc(S)c34)C=C[C@@H]2O1 (stereo not given in full)

>  <tested system>
L5178Y

>  <value relation sign>
=

>  <Inhibition [%]>
87

$$$$
>  <molecule>
NCc1c[nH]c2nc(N)nc(S)c12

>  <tested system>
L5178Y

>  <value relation sign>
=

>  <Inhibition [%]>
36

$$$$
>  <molecule>
Nc1nc(O)c2c(CNC3C=C[C@@H](O)[C@H]3O)c[nH]c2n1 (stereo not given in full)

>  <tested system>
L5178Y

>  <value relation sign>
<

>  <Inhibition [%]>
10

$$$$
>  <molecule>
Nc1nc(O)c2c(CNc3cccc(O)c3)c[nH]c2n1

>  <tested system>
L5178Y

>  <value relation sign>
=

>  <Inhibition [%]>
65

$$$$
>  <molecule>
Nc1nc(O)c2c(CNC3C=C[C@H](O)[C@@H]3O)c[nH]c2n1 (stereo not given in full)

>  <tested system>
L5178Y

>  <value relation sign>
<

>  <Inhibition [%]>
10

$$$$
>  <molecule>
Nc1nc(O)c2c(CNC(=O)CI)c[nH]c2n1

>  <tested system>
L5178Y

>  <value relation sign>
=

>  <Inhibition [%]>
87

$$$$
